Data origin, for the record: patent US20060257938A1

- protocol_details: Probe fluorescence ratio response to linolenic acid relative to ADIFAB2
- Assay type: binding
- test_conditions: response relative to ADIFAB2
readout_name: DR/DR LNA

[[record]]
molecule = "91A, 72A (protein, listed as Rattus norvegicus, PEPTIDE (1)...(131) wild-type rat intestinal fatty acid binding protein) AFDGTWKVDRNENYEKFMEKMGINVVKRKLGAHDNLKLTITQEGNKFTVKESSNFRNIDVVFELGVDFAYSAADGTELTGTWTMEGNKLVAKFKRVDNGKELIAVREISGNELIQTYTYEGVEAKRIFKKE"
recorded_measurement = 0.91

[[record]]
molecule = "62N, 72A (protein, listed as Rattus norvegicus, PEPTIDE (1)...(131) wild-type rat intestinal fatty acid binding protein) AFDGTWKVDRNENYEKFMEKMGINVVKRKLGAHDNLKLTITQEGNKFTVKESSNFRNIDVVNELGVDFAYSAADGTELTGTWTMEGNKLVGKFKRVDNGKELIAVREISGNELIQTYTYEGVEAKRIFKKE"
recorded_measurement = 1.40

[[record]]
molecule = "31V, 72A (protein, listed as Rattus norvegicus, PEPTIDE (1)...(131) wild-type rat intestinal fatty acid binding protein) AFDGTWKVDRNENYEKFMEKMGINVVKRKLVAHDNLKLTITQEGNKFTVKESSNFRNIDVVFELGVDFAYSAADGTELTGTWTMEGNKLVGKFKRVDNGKELIAVREISGNELIQTYTYEGVEAKRIFKKE"
recorded_measurement = 0.776

[[record]]
molecule = "102G, 72A (protein, listed as Rattus norvegicus, PEPTIDE (1)...(131) wild-type rat intestinal fatty acid binding protein) AFDGTWKVDRNENYEKFMEKMGINVVKRKLGAHDNLKLTITQEGNKFTVKESSNFRNIDVVFELGVDFAYSAADGTELTGTWTMEGNKLVGKFKRVDNGKEGIAVREISGNELIQTYTYEGVEAKRIFKKE"
recorded_measurement = 0.38

[[record]]
molecule = "119K, 72A (protein, listed as Rattus norvegicus, PEPTIDE (1)...(131) wild-type rat intestinal fatty acid binding protein) AFDGTWKVDRNENYEKFMEKMGINVVKRKLGAHDNLKLTITQEGNKFTVKESSNFRNIDVVFELGVDFAYSAADGTELTGTWTMEGNKLVGKFKRVDNGKELIAVREISGNELIQTYTKEGVEAKRIFKKE"
recorded_measurement = 0.78

[[record]]
molecule = "18V 31Y 73I 72A (protein, listed as Rattus norvegicus, PEPTIDE (1)...(131) wild-type rat intestinal fatty acid binding protein) AFDGTWKVDRNENYEKFVEKMGINVVKRKLYAHDNLKLTITQEGNKFTVKESSNFRNIDVVFELGVDFAYSAIDGTELTGTWTMEGNKLVGKFKRVDNGKELIAVREISGNELIQTYTYEGVEAKRIFKKE"
recorded_measurement = 2.537

[[record]]
molecule = "18I 31Y 73G 72A (protein, listed as Rattus norvegicus, PEPTIDE (1)...(131) wild-type rat intestinal fatty acid binding protein) AFDGTWKVDRNENYEKFIEKMGINVVKRKLYAHDNLKLTITQEGNKFTVKESSNFRNIDVVFELGVDFAYSAGDGTELTGTWTMEGNKLVGKFKRVDNGKELIAVREISGNELIQTYTYEGVEAKRIFKKE"
recorded_measurement = 2.706

[[record]]
molecule = "106A, 72A (protein, listed as Rattus norvegicus, PEPTIDE (1)...(131) wild-type rat intestinal fatty acid binding protein) AFDGTWKVDRNENYEKFMEKMGINVVKRKLGAHDNLKLTITQEGNKFTVKESSNFRNIDVVFELGVDFAYSAADGTELTGTWTMEGNKLVGKFKRVDNGKELIAVAEISGNELIQTYTYEGVEAKRIFKKE"
recorded_measurement = 0.518

[[record]]
molecule = "73E, 72A (protein, listed as Rattus norvegicus, PEPTIDE (1)...(131) wild-type rat intestinal fatty acid binding protein) AFDGTWKVDRNENYEKFMEKMGINVVKRKLGAHDNLKLTITQEGNKFTVKESSNFRNIDVVFELGVDFAYSAEDGTELTGTWTMEGNKLVGKFKRVDNGKELIAVREISGNELIQTYTYEGVEAKRIFKKE"
recorded_measurement = 0.14

[[record]]
molecule = "17T, 72A (protein, listed as Rattus norvegicus, PEPTIDE (1)...(131) wild-type rat intestinal fatty acid binding protein) AFDGTWKVDRNENYEKTMEKMGINVVKRKLGAHDNLKLTITQEGNKFTVKESSNFRNIDVVFELGVDFAYSAADGTELTGTWTMEGNKLVGKFKRVDNGKELIAVREISGNELIQTYTYEGVEAKRIFKKE"
recorded_measurement = 0.51


Alright, here's another molecule for you.
Suppose we examine the molecule 115H, 72A (protein, listed as Rattus norvegicus, PEPTIDE (1)...(131) wild-type rat intestinal fatty acid binding protein) AFDGTWKVDRNENYEKFMEKMGINVVKRKLGAHDNLKLTITQEGNKFTVKESSNFRNIDVVFELGVDFAYSAADGTELTGTWTMEGNKLVGKFKRVDNGKELIAVREISGNELIHTYTYEGVEAKRIFKKE ; what DR/DR LNA value has been reported?
0.697
